Measurement Target: Adrenergic receptor alpha-2 (Rattus norvegicus, UniProt P22086+P19328+P22909)
Test: Affinity for Alpha-2 adrenergic receptor of rat cortical membranes
Experimental Endpoint: Log Ki
Please give the numeric answer without any surrounding text.

Example results:
[
  {
    "Smiles Notation": "Cc1c(NC2=NCCN2)cccc1-c1cccc(C#N)c1.Cl",
    "Log Ki": -7.66
  },
  {
    "Smiles Notation": "Cc1c(NC2=NCCN2)cccc1-c1cccc(F)c1",
    "Log Ki": -7.58
  },
  {
    "Smiles Notation": "COc1ccc(-c2cccc(NC3=NCCN3)c2C)cc1",
    "Log Ki": -7.59
  },
  {
    "Smiles Notation": "Cc1c(NC2=NCCN2)cccc1-c1ccsc1",
    "Log Ki": -7.96
  },
  {
    "Smiles Notation": "Cc1c(NC2=NCCN2)cccc1-c1cccc(C(C)C)c1",
    "Log Ki": -6.96
  },
  {
    "Smiles Notation": "Cc1c(NC2=NCCN2)cccc1-c1cccs1",
    "Log Ki": -8.21
  }
]

// below: Log Ki requested for another compound
## Task Report Log Ki for "CC(=O)c1cccc(-c2cccc(NC3=NCCN3)c2C)c1.Cl" please.
## Result -7.49

* * *

Consider the following molecules and their measured Log Ki readings.
Measurement Target: Adrenergic receptor alpha-1 (Rattus norvegicus, UniProt P15823+P23944+P43140)
Test: Affinity for Alpha-1 adrenergic receptor of rat cortical membranes
Write the value as a bare number.

## Task Find Log Ki (Adrenergic receptor alpha-1 (Rattus norvegicus, UniProt P15823+P23944+P43140)) for the entry "Cc1c(NC2=NCCN2)cccc1-c1cccc(F)c1"
## Result -6.56

## Task Likewise for "Cc1c(NC2=NCCN2)cccc1-c1cccc(C(F)(F)F)c1" ?
## Result -6.59

## Task What do we get for "Cc1c(NC2=NCCN2)cccc1-c1cccc(C(C)C)c1" ?
## Result -5.92

## Task Try "COc1ccc(-c2cccc(NC3=NCCN3)c2C)cc1" next.
## Result -6.58

## Task Entry "Cc1c(NC2=NCCN2)cccc1-c1cccs1" please
## Result -6.99

## Task // next record "Cc1c(NC2=NCCN2)cccc1-c1cccc(Cl)c1"
## Result -6.88

## Task Entry "COc1ccc(-c2cccc(NC3=NCCN3)c2C)c(OC)c1" please
## Result -6.68

## Task One more molecule: "COc1cccc(-c2cccc(NC3=NCCN3)c2C)c1"
## Result -7.36

## Task Same read-out for "Cc1c(NC2=NCCN2)cccc1-c1ccsc1" ?
## Result -7.16

## Task Moving on to the next molecule: "CC(=O)c1cccc(-c2cccc(NC3=NCCN3)c2C)c1.Cl"
## Result -7.05

## Task Request: "Cc1c(NC2=NCCN2)cccc1-c1cccnc1"
## Result -6.59

## Task Then "Cc1c(NC2=NCCN2)cccc1-c1cccc(C#N)c1.Cl" ?
## Result -7.04

## Task Cool, now "Cc1cccc(-c2cccc(NC3=NCCN3)c2C)c1"
## Result -6.78

## Task Now give it for "Cc1c(NC2=NCCN2)cccc1-c1ccccc1" too.
## Result -6.68

* * *

Measurement Target: 5-hydroxytryptamine receptor 7 (Rattus norvegicus, UniProt P32305)
Sequence (P32305 whole entry): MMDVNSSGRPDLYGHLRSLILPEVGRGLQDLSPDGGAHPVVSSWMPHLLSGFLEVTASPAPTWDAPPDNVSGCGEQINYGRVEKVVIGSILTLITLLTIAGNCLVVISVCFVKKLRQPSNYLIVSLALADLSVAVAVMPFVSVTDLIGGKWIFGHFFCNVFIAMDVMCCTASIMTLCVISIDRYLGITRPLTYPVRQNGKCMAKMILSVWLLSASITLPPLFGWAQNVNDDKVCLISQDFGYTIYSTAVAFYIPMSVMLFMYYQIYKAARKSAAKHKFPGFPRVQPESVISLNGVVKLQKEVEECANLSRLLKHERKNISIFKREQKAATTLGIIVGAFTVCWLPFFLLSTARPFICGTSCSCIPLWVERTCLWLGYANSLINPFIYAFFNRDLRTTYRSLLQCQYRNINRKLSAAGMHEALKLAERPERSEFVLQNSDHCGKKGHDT
Mark each entry true (1) if its Ki sits below 40 nM, and false (0) for all others.

Before answering, review these 3 worked examples.
[
  {
    "Smiles Notation": "COc1cccc(-c2cccc(NC3=NCCN3)c2C)c1",
    "Qualitative Label": "true (1)"
  },
  {
    "Smiles Notation": "Cc1cccc(-c2cccc(NC3=NCCN3)c2C)c1",
    "Qualitative Label": "true (1)"
  },
  {
    "Smiles Notation": "Cc1c(NC2=NCCN2)cccc1-c1cccc(F)c1",
    "Qualitative Label": "true (1)"
  }
]

## Task I wonder whether "Cc1c(NC2=NCCN2)cccc1-c1cccc(C(F)(F)F)c1" has Ki below 40 nM. Can you tell?
## Result false (0)

* * *

Measurement Target: Adrenergic receptor alpha-2 (Rattus norvegicus, UniProt P22086+P19328+P22909)
Sequence (P22086 whole entry): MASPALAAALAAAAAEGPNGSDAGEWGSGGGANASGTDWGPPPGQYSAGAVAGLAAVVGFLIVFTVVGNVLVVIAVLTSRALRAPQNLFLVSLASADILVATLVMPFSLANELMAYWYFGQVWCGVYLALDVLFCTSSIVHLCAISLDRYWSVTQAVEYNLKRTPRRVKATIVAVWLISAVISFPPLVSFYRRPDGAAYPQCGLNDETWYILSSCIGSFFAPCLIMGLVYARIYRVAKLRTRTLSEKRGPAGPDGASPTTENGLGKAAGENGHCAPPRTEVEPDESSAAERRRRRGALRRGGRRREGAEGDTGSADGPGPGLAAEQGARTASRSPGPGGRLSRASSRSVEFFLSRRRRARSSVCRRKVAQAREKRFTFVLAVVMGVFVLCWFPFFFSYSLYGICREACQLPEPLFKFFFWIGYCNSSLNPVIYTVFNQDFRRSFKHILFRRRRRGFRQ
Sequence (P19328 whole entry): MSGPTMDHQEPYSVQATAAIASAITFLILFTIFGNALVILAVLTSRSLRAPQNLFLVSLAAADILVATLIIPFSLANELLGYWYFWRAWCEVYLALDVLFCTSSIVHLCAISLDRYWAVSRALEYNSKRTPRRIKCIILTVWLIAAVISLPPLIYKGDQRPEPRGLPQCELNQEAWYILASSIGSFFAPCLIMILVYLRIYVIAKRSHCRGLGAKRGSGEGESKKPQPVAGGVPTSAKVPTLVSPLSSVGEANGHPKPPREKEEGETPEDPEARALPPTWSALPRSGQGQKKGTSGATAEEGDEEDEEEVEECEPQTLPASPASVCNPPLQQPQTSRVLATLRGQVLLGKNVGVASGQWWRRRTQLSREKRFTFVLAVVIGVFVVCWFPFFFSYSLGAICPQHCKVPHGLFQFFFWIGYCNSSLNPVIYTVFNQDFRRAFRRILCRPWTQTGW
Sequence (P22909 whole entry): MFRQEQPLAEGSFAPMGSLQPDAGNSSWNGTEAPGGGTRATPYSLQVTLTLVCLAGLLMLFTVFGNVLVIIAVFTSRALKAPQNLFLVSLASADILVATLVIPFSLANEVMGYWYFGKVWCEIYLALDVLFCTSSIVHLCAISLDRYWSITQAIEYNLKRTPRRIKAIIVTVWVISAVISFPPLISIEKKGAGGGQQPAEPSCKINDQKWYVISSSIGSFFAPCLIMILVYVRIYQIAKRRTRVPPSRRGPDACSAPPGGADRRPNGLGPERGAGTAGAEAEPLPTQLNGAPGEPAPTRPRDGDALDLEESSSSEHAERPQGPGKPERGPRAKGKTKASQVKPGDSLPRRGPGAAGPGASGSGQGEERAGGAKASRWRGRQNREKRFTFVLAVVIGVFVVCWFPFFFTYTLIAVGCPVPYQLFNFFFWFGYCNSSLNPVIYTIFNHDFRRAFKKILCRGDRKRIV
Test: Affinity for Alpha-2 adrenergic receptor of rat cortical membranes
Let's look at some molecules and their measured Log Ki.
API note: the answer field is a bare number with no unit suffix.

# count of solved cases: 6
[
  {
    "Smiles Notation": "Cc1cccc(-c2cccc(NC3=NCCN3)c2C)c1",
    "Experimental Endpoint": "Log Ki",
    "Recorded Number": -7.75
  },
  {
    "Smiles Notation": "COc1cccc(-c2cccc(NC3=NCCN3)c2C)c1",
    "Experimental Endpoint": "Log Ki",
    "Recorded Number": -8
  },
  {
    "Smiles Notation": "Cc1c(NC2=NCCN2)cccc1-c1cccc(Cl)c1",
    "Experimental Endpoint": "Log Ki",
    "Recorded Number": -7.62
  },
  {
    "Smiles Notation": "Cc1c(NC2=NCCN2)cccc1-c1cccnc1",
    "Experimental Endpoint": "Log Ki",
    "Recorded Number": -8.29
  },
  {
    "Smiles Notation": "COc1ccc(-c2cccc(NC3=NCCN3)c2C)c(OC)c1",
    "Experimental Endpoint": "Log Ki",
    "Recorded Number": -7.13
  },
  {
    "Smiles Notation": "Cc1c(NC2=NCCN2)cccc1-c1cccc(C(F)(F)F)c1",
    "Experimental Endpoint": "Log Ki",
    "Recorded Number": -7.1
  }
]

Turning to the following molecule.
## Task # lookup: Log Ki of "Cc1c(NC2=NCCN2)cccc1-c1ccccc1"
## Result -7.71

* * *

Measurement Target: UniProt:P32305
Test: Inhibition of [3H]-5-CT binding to 5-hydroxytryptamine 7 receptor of rat cortical membranes
Assay type: cell membranes, Membrane
Experimental Endpoint: pKi
Give only the number. pKi is defined as minus log10 of concentration in molar units.

See these solved cases before continuing.
[
  {
    "Smiles Notation": "COc1ccc(-c2cccc(NC3=NCCN3)c2C)c(OC)c1",
    "Experimental Endpoint": "pKi",
    "Recorded Number": 7.39
  },
  {
    "Smiles Notation": "COc1ccc(-c2cccc(NC3=NCCN3)c2C)cc1",
    "Experimental Endpoint": "pKi",
    "Recorded Number": 7.56
  },
  {
    "Smiles Notation": "CC(=O)c1cccc(-c2cccc(NC3=NCCN3)c2C)c1.Cl",
    "Experimental Endpoint": "pKi",
    "Recorded Number": 6.81
  }
]

Continue with the molecule presented below.
## Task For "Cc1c(NC2=NCCN2)cccc1-c1cccc(Cl)c1" , what is its reported pKi?
## Result 7.58
